measurement description: Pharmacokinetic study in tumor-bearing nude mice (LC-MS/MS)
Format: in vivo
test parameters: nude, mouse, single oral dose 50 mg/kg, plasma, read-out: MRT (mean resident time)
value kind: MRT (h)
Your answer is read as h, so omit the unit and give the number.

Query: MRT; subject: `COc1cc2c(Oc3ccc(NC(=O)C4(C(=O)Nc5ccc(F)cc5)CC4)cc3F)ccnc2cc1OCCCN1CCOCC1`
13.3

====

measurement description: Pharmacokinetic study in tumor-bearing nude mice (LC-MS/MS)
Assay type: in vivo
test parameters: nude, mouse, single oral dose 10 mg/kg, plasma
Protocol: Data processing was performed with Phoenix WinNonlin 8.1.0.3530 (Pharsight Corporation, Mountain View, CA, USA).
value kind: Cmax

Cmax for `COc1cc2c(Oc3ccc(NC(=O)C4(C(=O)Nc5ccc(F)cc5)CC4)cc3F)ccnc2cc1OCCCN1CCOCC1` ?
334 ng/mL

====

measurement description: Pharmacokinetic study in tumor-bearing nude mice (LC-MS/MS)
Format: in vivo
test parameters: nude, mouse, single oral dose 2 mg/kg, plasma, read-out: MRT (mean resident time)
value kind: MRT
Units required after the number.

Any idea what its MRT is? The molecule is `COc1cc2c(Oc3ccc(NC(=O)C4(C(=O)Nc5ccc(F)cc5)CC4)cc3F)ccnc2cc1OCCCN1CCOCC1`
20.1 h

====

measurement description: Pharmacokinetic study in tumor-bearing nude mice (LC-MS/MS)
Type: in vivo
test parameters: nude, mouse, single oral dose 2 mg/kg, plasma
value kind: half-life (h)
The reply should be a number in h, with the unit left off.

Which measured half-life value corresponds to `COc1cc2c(Oc3ccc(NC(=O)C4(C(=O)Nc5ccc(F)cc5)CC4)cc3F)ccnc2cc1OCCCN1CCOCC1` ?
15.1

====

measurement description: Pharmacokinetic study in tumor-bearing nude mice (LC-MS/MS)
Assay type: in vivo
test parameters: nude, mouse, single oral dose 2 mg/kg, plasma
value kind: Cmax (ng/mL)
Only the number, expressed in ng/mL, is required.

State the recorded Cmax for this entry: COc1cc2c(Oc3ccc(NC(=O)C4(C(=O)Nc5ccc(F)cc5)CC4)cc3F)ccnc2cc1OCCCN1CCOCC1 [Foretinib]
22.2

====

measurement description: Pharmacokinetic study in tumor-bearing nude mice (LC-MS/MS)
Assay type: in vivo
test parameters: nude, mouse, single oral dose 50 mg/kg, plasma
value kind: AUC(0-t)

Please give the measured AUC(0-t) for this compound: `COc1cc2c(Oc3ccc(NC(=O)C4(C(=O)Nc5ccc(F)cc5)CC4)cc3F)ccnc2cc1OCCCN1CCOCC1`
12600 ng·h/mL

====

measurement description: Pharmacokinetic study in tumor-bearing nude mice (LC-MS/MS)
Assay type: in vivo
test parameters: nude, mouse, single oral dose 50 mg/kg, plasma
Experimental: Data processing was performed with Phoenix WinNonlin 8.1.0.3530 (Pharsight Corporation, Mountain View, CA, USA).
value kind: AUC(0-inf) (ng·h/mL)
Numbers only; they are read as ng·h/mL.

Item `COc1cc2c(Oc3ccc(NC(=O)C4(C(=O)Nc5ccc(F)cc5)CC4)cc3F)ccnc2cc1OCCCN1CCOCC1` has what recorded AUC(0-inf)?
13000

====

measurement description: Pharmacokinetic study in tumor-bearing nude mice (LC-MS/MS)
Type: in vivo
test parameters: nude, mouse, single oral dose 2 mg/kg, plasma
value kind: AUC(0-inf) (ng·h/mL)
Respond with the bare value in ng·h/mL.

Given the compound COc1cc2c(Oc3ccc(NC(=O)C4(C(=O)Nc5ccc(F)cc5)CC4)cc3F)ccnc2cc1OCCCN1CCOCC1 [Foretinib] , what is its reported AUC(0-inf)?
407
